Origin of the recorded values: patent US20240368168A1

Target chain: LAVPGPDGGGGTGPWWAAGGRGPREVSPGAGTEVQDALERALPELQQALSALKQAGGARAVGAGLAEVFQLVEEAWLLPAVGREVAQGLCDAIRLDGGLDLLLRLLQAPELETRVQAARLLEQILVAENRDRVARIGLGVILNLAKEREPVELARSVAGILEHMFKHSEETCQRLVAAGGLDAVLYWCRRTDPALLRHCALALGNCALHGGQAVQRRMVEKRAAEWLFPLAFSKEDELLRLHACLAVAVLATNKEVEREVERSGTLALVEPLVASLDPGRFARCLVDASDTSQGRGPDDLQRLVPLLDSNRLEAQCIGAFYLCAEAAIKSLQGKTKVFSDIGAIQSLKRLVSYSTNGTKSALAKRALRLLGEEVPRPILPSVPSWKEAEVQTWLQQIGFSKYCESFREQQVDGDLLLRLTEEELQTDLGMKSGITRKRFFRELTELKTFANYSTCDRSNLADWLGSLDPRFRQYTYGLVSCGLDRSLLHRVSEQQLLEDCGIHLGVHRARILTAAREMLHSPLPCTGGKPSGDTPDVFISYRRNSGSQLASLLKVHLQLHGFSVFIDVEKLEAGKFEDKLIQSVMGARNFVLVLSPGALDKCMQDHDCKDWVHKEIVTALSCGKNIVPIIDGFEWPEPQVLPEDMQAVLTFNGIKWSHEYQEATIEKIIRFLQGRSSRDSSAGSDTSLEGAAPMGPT
pIC50: −log10 of the molar value.
Observable: pIC50

Observe how each entry below is paired with its result.
CNc1ccc2ncc(-c3cccc4c3C(=O)NC4)n2c1 : > 6.00
CNc1ccc2ncc(-c3cccs3)n2c1 : 5.00 to 6.00

Below: the item to evaluate.
Challenge: Quick check: pIC50 of `CN(C(=O)OC(C)(C)C)c1ccc2ncc(-c3cccc(NC(=O)c4ccccc4)c3)n2c1` ?
Response given: 5.00 to 6.00

====

Assayed system: dN-SARM1 protein (Homo sapiens, UniProt Q6SZW1)
Construct: the N-terminal mitochondrial localization signal peptide of SARM1 was removed
Protocol: In vitro biochemical assay for inhibiting SARM1 enzymatic activity (% inhibition rate), PC6 fluorescence method
Test conditions: 20 μM compound; 50 μM NAD, 50 μM PC6, 50 μM NMN activator
Observable: inhibition at 20 µM

Challenge: Fill in: inhibition at 20 µM of `CNc1ccc2ncc(-c3cccc(OCC4CCOCC4)c3)n2c1` is ___
Response given: > 90%

Challenge: Next: `CC(C)(C)OC(=O)Nc1ccc2ncc(C(=O)NCCOCCOCCNC(=O)c3cnc4ccc(NC(=O)OC(C)(C)C)cn34)n2c1`
Response given: 50 to 89%

Challenge: Repeat with `CN(C(=O)OC(C)(C)C)c1ccc2ncc(-c3cccc(NC(=O)C4COC4)c3)n2c1`
Response given: > 90%

====

Assayed system: dN-SARM1 protein (Homo sapiens)
Observable: IC50

Here are 2 molecules together with their reported answers.
CNc1ccc2ncc(-c3cccc(OCCOCCOC)c3)n2c1 : 1 to 10 µM
CNc1ccc2ncc(C3CCCCC3)n2c1 : 1 to 10 µM

Next molecule, please.
Challenge: Recorded IC50 of `CC(C)(C)OC(=O)Nc1ccc2ncc(-c3cccc(N)c3)n2c1` , please.
Response given: 1 to 10 µM

====

Sequence of the target: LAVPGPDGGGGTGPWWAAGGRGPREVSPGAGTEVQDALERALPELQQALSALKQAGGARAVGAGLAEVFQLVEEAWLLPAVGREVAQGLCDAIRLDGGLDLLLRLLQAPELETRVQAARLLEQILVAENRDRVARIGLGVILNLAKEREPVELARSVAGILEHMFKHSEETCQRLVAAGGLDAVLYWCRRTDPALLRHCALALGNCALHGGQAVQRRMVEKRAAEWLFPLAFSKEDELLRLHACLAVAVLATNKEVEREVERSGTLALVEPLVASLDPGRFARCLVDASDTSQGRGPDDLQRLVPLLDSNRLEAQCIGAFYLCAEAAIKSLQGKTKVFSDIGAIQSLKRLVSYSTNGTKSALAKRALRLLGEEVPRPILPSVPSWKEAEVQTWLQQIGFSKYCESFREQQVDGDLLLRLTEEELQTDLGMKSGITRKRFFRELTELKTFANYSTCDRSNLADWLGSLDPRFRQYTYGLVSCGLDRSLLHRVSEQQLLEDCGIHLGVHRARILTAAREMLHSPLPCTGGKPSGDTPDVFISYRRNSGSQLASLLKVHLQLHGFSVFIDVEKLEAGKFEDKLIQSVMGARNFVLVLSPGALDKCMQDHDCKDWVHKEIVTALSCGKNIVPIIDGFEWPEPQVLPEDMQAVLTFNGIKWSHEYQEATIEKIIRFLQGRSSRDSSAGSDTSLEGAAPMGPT
pIC50: −log10 of the molar value. Counter-ions that a name gives are not always drawn.
Observable: pIC50

Here's what some known entries look like.
CN(C)CCN1Cc2c(cccc2-c2cnc3ccc(N(C)C(=O)OC(C)(C)C)cn23)C1=O : 5.00 to 6.00
CNc1ccc2ncc(-c3cccc4c(I)n[nH]c34)n2c1 [Compound 210, hydrochloride] : 5.00 to 6.00

Challenge: Can you share its pIC50? I mean this molecule: `CCOC(=O)c1ccc2ncc(-c3ccccc3)n2c1`
Response given: 5.00 to 6.00

Challenge: Now consider `CN(C(=O)OC(C)(C)C)c1ccc2ncc(-c3ccncc3)n2c1` and answer again.
Response given: 5.00 to 6.00

Challenge: Would you kindly repeat that for `CNc1ccc2ncc(-c3cccc(CNC(=O)c4ccccc4)c3)n2c1` ?
Response given: 5.00 to 6.00

Challenge: Field entry: `CNc1ccc2ncc(-c3cccc4[nH]ccc34)n2c1`
Response given: > 6.00

Challenge: What do you get for `COc1ccc2ncc(-c3cccc(S(N)(=O)=O)c3)n2c1` ?
Response given: 5.00 to 6.00

Challenge: Next entry: `CN(C(=O)OC(C)(C)C)c1ccc2ncc(-c3cccc4cn[nH]c34)n2c1`
Response given: > 6.00

====

Assayed system: dN-SARM1 protein (Homo sapiens)
Construct: the N-terminal mitochondrial localization signal peptide of SARM1 was removed
Protocol: In vitro biochemical assay for inhibiting SARM1 enzymatic activity (% inhibition rate), PC6 fluorescence method
Test conditions: 20 μM compound; 50 μM NAD, 50 μM PC6, 50 μM NMN activator
Reported inhibition at 20 µM by item:

O=C(Nc1cccc(-c2cnc3ccc(N4CCOCC4)cn23)c1)C1CCOCC1 [Compound 57] : > 90%
CNc1ccc2ncc(C(=O)Nc3ccccc3)n2c1 [Compound 105] : > 90%
COCCOCC(=O)Nc1cccc(-c2cnc3ccc(CNC(=O)OC(C)(C)C)cn23)c1 [Compound 145] : > 90%
CC(C)(C)OC(=O)Nc1ccc2ncc(-c3ccccc3)n2n1 [Compound 22] : 50 to 89%
CN(C(=O)OC(C)(C)C)c1ccc2ncc(-c3cccc(NC(=O)COCCOCCOCC(=O)Nc4cccc5c4CN(C4CCC(=O)NC4=O)C5=O)c3)n2c1 (stereo not shown) [Compound 115] : > 90%

Challenge: Any idea what inhibition at 20 µM was measured for CC(C)(C)OC(=O)Nc1ccc2ncc(I)n2c1 [Compound 44] ?
Response given: 50 to 89%

Challenge: Okay, and CC(C)(C)OC(=O)Nc1ccc2ncc(-c3cccc(N)c3)n2c1 [Compound 46] ?
Response given: > 90%

Challenge: Cool, now CN(C(=O)OC(C)(C)C)c1ccc2ncc(-c3ccnc(N)c3)n2c1 [Compound 41]
Response given: > 90%

Challenge: Another compound: CNc1ccc2ncc(Br)n2n1 [Compound 1]
Response given: > 90%

====

# inhibition at 20 µM per record follows
Assayed system: dN-SARM1 protein (Homo sapiens, UniProt Q6SZW1)
Construct: the N-terminal mitochondrial localization signal peptide of SARM1 was removed
Protocol: In vitro biochemical assay for inhibiting SARM1 enzymatic activity (% inhibition rate), PC6 fluorescence method
Test conditions: 20 μM compound; 50 μM NAD, 50 μM PC6, 50 μM NMN activator

COC(=O)c1csc(-c2cnc3ccc(NC(=O)OC(C)(C)C)cn23)c1 : > 90%
COCCOCCNC(=O)c1cccc(-c2cnc3ccc(N(C)C(=O)OC(C)(C)C)cn23)c1 : 50 to 89%
CN(C(=O)OC(C)(C)C)c1ccc2ncc(-c3cccc(C(=O)NC4CCOCC4)c3)n2c1 : 50 to 89%
Ic1cccc2ncc(I)n12 : 50 to 89%
CC(C)(C)OC(=O)Nc1ccc2ncc(-c3cccc(NC(=O)COCCOCC(=O)Nc4cccc(-c5cnc6ccc(NC(=O)OC(C)(C)C)cn56)c4)c3)n2c1 : > 90%

Challenge: Please provide the recorded inhibition at 20 µM for `Cc1ccc2ncc(-c3cccc(NC(=O)C4CCOCC4)c3)n2c1` , tested on dN-SARM1 protein (Homo sapiens, UniProt Q6SZW1).
Response given: > 90%

Challenge: Input `COCCOCC(=O)Nc1cccc(-c2cnc3ccc(N4CCOCC4)cn23)c1`
Response given: > 90%

====

Listed next: entries and their corresponding inhibition at 20 µM.
Assayed system: dN-SARM1 protein (Homo sapiens, UniProt Q6SZW1)
Construct: the N-terminal mitochondrial localization signal peptide of SARM1 was removed
Sequence (Q6SZW1 28-724): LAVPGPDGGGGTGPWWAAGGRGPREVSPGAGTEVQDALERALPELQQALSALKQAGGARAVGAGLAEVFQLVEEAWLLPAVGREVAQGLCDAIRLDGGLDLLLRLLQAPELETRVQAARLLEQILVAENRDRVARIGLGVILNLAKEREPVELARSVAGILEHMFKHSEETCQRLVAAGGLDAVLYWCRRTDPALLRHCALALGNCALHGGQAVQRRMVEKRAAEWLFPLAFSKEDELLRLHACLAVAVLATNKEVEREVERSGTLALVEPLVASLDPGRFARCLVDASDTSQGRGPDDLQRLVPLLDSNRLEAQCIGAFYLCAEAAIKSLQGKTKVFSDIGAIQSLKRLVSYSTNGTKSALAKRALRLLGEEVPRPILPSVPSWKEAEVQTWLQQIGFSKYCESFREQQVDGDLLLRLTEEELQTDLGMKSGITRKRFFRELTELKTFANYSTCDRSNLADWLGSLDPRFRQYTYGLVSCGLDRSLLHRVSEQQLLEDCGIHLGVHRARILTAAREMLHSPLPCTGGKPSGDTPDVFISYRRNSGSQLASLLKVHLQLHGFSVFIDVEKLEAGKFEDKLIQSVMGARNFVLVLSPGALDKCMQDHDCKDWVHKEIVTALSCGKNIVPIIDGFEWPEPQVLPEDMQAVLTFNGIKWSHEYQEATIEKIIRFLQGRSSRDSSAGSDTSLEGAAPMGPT
Protocol: In vitro biochemical assay for inhibiting SARM1 enzymatic activity (% inhibition rate), PC6 fluorescence method
Test conditions: 20 μM compound; 50 μM NAD, 50 μM PC6, 50 μM NMN activator

Some entries whose results are on file:
CN(C(=O)OC(C)(C)C)c1ccc2ncc(-c3ccccc3)n2n1 : 50 to 89%
CN1CCN(c2ccc3ncc(-c4ccccc4)n3c2)CC1 : 50 to 89%
COCCOCC(=O)Nc1cccc(-c2cnc3ccc(NC(=O)OC(C)(C)C)cn23)c1 : 50 to 89%
COc1ccn2c(-c3ccccc3)cnc2c1 : > 90%
CN1CCC(C(=O)Nc2cccc(-c3cnc4ccc(N(C)C(=O)OC(C)(C)C)cn34)c2)CC1 : 50 to 89%

Challenge: Find the recorded inhibition at 20 µM belonging to `CNc1ccc2ncc(-c3cccc(OCCOCCOC)c3)n2c1` and report it.
Response given: > 90%

Challenge: Proceed to `CN(C(=O)C(F)(F)F)c1ccc2ncc(NC(=O)COCCOCCOCC(=O)Nc3cnc4ccc(N(C)C(=O)C(F)(F)F)cn34)n2c1`
Response given: > 90%
